# System: colon 38 cells
# Protocol: In vitro antitumor test against colon 38 cells (MTT)
# Type: cell-based
# Condition set: 72 h, concentration at which 50% of mouse colon 38 cells are inhibited, 3 days
Overview of reported IC50 across a group of molecules:
Give just the number in µg/mL; leave the unit off.

Example entries and their recorded answers appear below.
Q. Please report the recorded IC50 for CS(=O)(=O)NCc1ccc(S(=O)(=O)Nc2cccc3c(Cl)c[nH]c23)cc1 [Example 53] .
A. 0.12

Q. Likewise for NS(=O)(=O)c1ccc(S(=O)(=O)Nc2cccc3c(Cl)c[nH]c23)cc1 [Example 19] ?
A. 0.1

Next item in the queue.
Q. Item under review: N#Cc1ccc(S(=O)(=O)Nc2cccc3c(C#N)c[nH]c23)cc1 [Example 28] . Reported IC50?
A. 0.12
